# experiment: NCI Yeast Anticancer Drug Screen. Data for the rad50 strain (AID 155);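 further: 0% = growth of vehicle-only cultures of the same strain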
# cond: S. cerevisiae rad50 strain growth inhibition; at 50.0 µM (retest, dose inferred, filed as 5.0); hits give high values
About 79,000 compounds went through this panel and 15% of them were active in at least one assay; those are over-represented in the sample as a whole.
metric name: growth inhibition (%)
Your answer should be a plain number; it is taken to be in %.

For CCN(CC)CCCCCCNc1cc(Cl)cc2cccnc12 , what is its reported growth inhibition? 71

Follow-up item: [O-][N+]1=C2CCC/C(=N/O)C2(O)C2CCCCC21N1CCOCC1 (stereo unspecified) 20

Follow-up item: Cc1ccc(S(=O)(=O)OC2COC3C(OS(=O)(=O)c4ccc(C)cc4)COC23)cc1 (stereo unspecified) -13

Follow-up item: COc1cc2c[n+](C)c3c4cc(OC)c(OCc5ccccc5)cc4c(OCc4ccccc4)cc3c2cc1OC 96

Follow-up item: Cc1cc(NC(=S)SCc2ccc3c(c2)OCO3)ccc1Cl 98

Follow-up item: N#CC(C(=O)C(=O)Nc1ccc(Cl)cc1)c1c(Cl)cccc1Cl (stereo unspecified) 1

###

Would you kindly list growth inhibition for each of these compounds?
# experiment: NCI Yeast Anticancer Drug Screen. Data for the sgs1 mgt1 strain (AID 161);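 further: 0% = growth of cultures given vehicle only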
# cond: S. cerevisiae sgs1 mgt1 strain, at 5.0 µM (retest, dose inferred, filed as 0.5), hits give high values
This is part of a sample that, as a whole, favours compounds with a hit. Of some 79,000 tested, about 15% had one in any assay.
Your answer should be a plain number; it is taken to be in %.

For CCCCCCCCCCN(CCCCCCCCCC)CC(O)c1cc(-c2ccccc2)nc2ccccc12 (stereo unspecified) , what is its reported growth inhibition? -22

Follow-up item: O=c1cc(Cl)c(Cl)nn1-c1ccccc1 7

Follow-up item: Nc1ccc(C(=O)NN2C(=O)C(Cl)C2c2cc(Br)cc(Br)c2O)cc1 (stereo unspecified) -3

Follow-up item: C=CCOc1ccc(-c2ccccc2)cc1C(=O)NC -2

Follow-up item: CC(/C=N/NS(=O)(=O)c1ccc(C)cc1)=C(c1ccccc1)c1ccccc1 -79

Follow-up item: CS(=O)(=O)C(=Cc1ccccc1Cl)S(C)(=O)=O 11

Follow-up item: CC(C)CN(CC(C)C)CN1C(=O)/C(=C/c2ccc([N+](=O)[O-])cc2)SC1=S 11

Follow-up item: C(=C\c1cnnc2ccccc12)/c1cccnc1 11

Follow-up item: CCCCCCCCCCCCCCCC(=O)NCCN(C)C 23

Follow-up item: OC1(c2ccccc2)CCN(c2c3ccccc3nc3ccccc23)CC1 6

Follow-up item: COC(=O)c1nc(=S)[nH]c(C(=O)OC)c1C(=O)c1ccc([N+](=O)[O-])cc1 -5

###

Would you kindly list growth inhibition for each of these compounds?
# experiment: NCI Yeast Anticancer Drug Screen. Data for the rad50 strain (AID 155);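 further: 0% = growth of vehicle-only cultures of the same strain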
# cond: S. cerevisiae rad50 strain growth inhibition; at 5.0 µM (retest, dose inferred, filed as 0.5); hits give high values
About 79,000 compounds went through this panel and 15% of them were active in at least one assay; those are over-represented in the sample as a whole.
Your answer should be a plain number; it is taken to be in %.

For CC1(C)/C=C/C2=Nc3cc(Br)c(Br)c(Br)c3C23CC(=O)N3/C=C(\Cl)c2nc(Br)[nH]c21 (centres undefined) , what is its reported growth inhibition? 22

Follow-up item: COC12C=CC(CC1)c1c2c(O)c2ccncc2c1O (centres undefined) 9

Follow-up item: CC1(C)OC2COC3(CNO)OC(C)(C)OC3C2O1 (centres undefined) 0

Follow-up item: COc1ccc(C2=C(Cl)C(=O)N(c3ccccc3C)C(=O)C2(Cl)Cl)cc1 66

Follow-up item: N#CC(C#N)=Cc1ccc(Oc2ccccc2)cc1 2

Follow-up item: CCOc1ccc(C=Nc2ccc(/C=C(\C)C(=O)OCCC(C)C)cc2)cc1 50

Follow-up item: Cc1ccc(NC(=S)SCc2ccc3c(c2)OCO3)cc1Cl 19

Follow-up item: Cc1ccc2c(c1)C1(SC(C)C(=O)N1c1ccc(Cl)cc1)C(=O)N2CN1CCOCC1 (centres undefined) 5

Follow-up item: N#Cc1c(Cl)cc(Cl)n2c1nc1ccccc12 46

Follow-up item: Oc1[nH]c2ccccc2c1N=NC(=S)N1CCCCCC1 6

Follow-up item: C=C(C)C1CC/C(C)=C/CCC2(C)OC2CC/C(CO)=C\C1O (centres undefined) 52

Follow-up item: C(=C\c1cccc2ccccc12)/c1ccncc1 8

Follow-up item: CN(C)C(=S)/N=c1\ssc(=S)n1Cc1ccco1 22

Follow-up item: Oc1c(Cl)cc(CN(Cc2cc(Cl)c(O)c(Cl)c2)C2CCCCC2)cc1Cl 10

Follow-up item: O=c1[nH]c(Cc2ccccc2)nc2c1sc1nc3ccccc3n12 36

Follow-up item: O=[N+]([O-])/C(C=Nc1ccccc1)=C/Nc1ccccc1 -17

Follow-up item: O=C(O)/C=C/c1ccc2c(c1)CC1(Cc3ccccc3C1)C2 27

Follow-up item: Fc1ccc(C2(CCCN3CCc4[nH]c5cc(F)ccc5c4C3)OCCO2)cc1 31

Follow-up item: CCn1c2ccc(N)cc2c2c(N)c(-n3cccc3)ccc21 1

Follow-up item: CCCC[NH-].CCCC[NH-].[I][Pt+2][I] 30

Follow-up item: Cc1ccc(N2C(=O)CSC2=S)cc1Br 7

Follow-up item: Cc1ccc2c(c1)C1C(CC2)C2C(=O)OC(=O)C2C2CCc3ccc(C)cc3C21 (centres undefined) 35

Follow-up item: N#C/C(=C/c1ccc([N+](=O)[O-])o1)c1ccccc1 -6

Follow-up item: O=C(O)Cc1cccc2c(=O)c3cccc([N+](=O)[O-])c3[nH]c12 32

# credit: PubChem BioAssay (NCI)
